Tested on: Human immunodeficiency virus 1
Assay: Antiviral activity against NNRTI-resistant HIV-1 harboring K103N mutant infected in human MT4 cells assessed as virus-induced cytopathicity incubated for 5 days by MTT assay
Assay type: functional, organism-based
Conditions: Human immunodeficiency virus 1, MT4, 120 h
Recorded EC50 values for a group of compounds are listed next.
Value type: EC50 (µM)

INSERT INTO results (smiles_input, measured_on, unit_of_measure, readout_number) VALUES
  ('Cc1cc(C#N)cc(C)c1Oc1nc(NC2CCN(c3ccc(NS(=O)(=O)C4CC4)cc3)CC2)ncc1C(N)=O', 'Human immunodeficiency virus 1', 'µM', 0.009),
  ('Cc1cc(C#N)cc(C)c1Oc1nc(NC2CCN(Cc3ccc(S(N)(=O)=O)cc3)CC2)ncc1C(N)=O', 'Human immunodeficiency virus 1', 'µM', 0.062),
  ('Cc1cc(C#N)cc(C)c1Oc1nc(NC2CCN(Cc3ccc(C(N)=O)cc3)CC2)ncc1C(N)=O', 'Human immunodeficiency virus 1', 'µM', 0.045),
  ('Cc1cc(C#N)cc(C)c1Oc1nc(NC2CCN(Cc3ccc(S(C)(=O)=O)cc3)CC2)ncc1C(N)=O', 'Human immunodeficiency virus 1', 'µM', 0.005),
  ('Cc1cc(C#N)cc(C)c1Oc1nc(NC2CCN(c3ccc(NS(C)(=O)=O)cc3)CC2)ncc1C(N)=O', 'Human immunodeficiency virus 1', 'µM', 0.154),
  ('Cc1cc(C#N)cc(C)c1Oc1nc(NC2CCN(c3ccc(NS(N)(=O)=O)cc3)CC2)ncc1C(N)=O', 'Human immunodeficiency virus 1', 'µM', 0.037),
  ('Cc1cc(C#N)cc(C)c1Oc1nc(Nc2ccc(C#N)c(F)c2)ncc1C(N)=O', 'Human immunodeficiency virus 1', 'µM', 0.02),
  ('Cc1cc(C#N)cc(C)c1Oc1nc(NC2CCN(c3ccc(NS(=O)(=O)N(C)C)cc3)CC2)ncc1C(N)=O', 'Human immunodeficiency virus 1', 'µM', 0.011),
  ('Cc1cc(C#N)cc(C)c1Oc1nc(NC2CCN(c3ccc(N)cc3)CC2)ncc1C(N)=O', 'Human immunodeficiency virus 1', 'µM', 0.045),
  ('Cc1cc(C#N)cc(C)c1Oc1nc(Nc2ccc(C#N)cc2)ncc1C(N)=O', 'Human immunodeficiency virus 1', 'µM', 0.05),
  ('Cc1cc(C#N)cc(C)c1Oc1nc(NC2CCN(Cc3ccc(B(O)O)cc3)CC2)ncc1C(N)=O', 'Human immunodeficiency virus 1', 'µM', 0.045);

###

System: Human immunodeficiency virus 1
Assay: Antiviral activity against NNRTI-resistant HIV-1 harboring F227L/V106A double mutant infected in human MT4 cells assessed as virus-induced cytopathicity incubated for 5 days by MTT assay
Assay type: functional, organism-based
Conditions: Human immunodeficiency virus 1, MT4, 120 h
Kindly apply the following: 1.0 if EC50 is less than 1000 nM, 0.0 in every other case.

INSERT INTO measurements (smiles_input, assigned_class) VALUES
  ('Cc1cc(C#N)cc(C)c1Oc1nc(NC2CCN(c3ccc(N)cc3)CC2)ncc1C(N)=O', 0.0),
  ('Cc1cc(C#N)cc(C)c1Oc1nc(NC2CCN(c3ccc(NS(N)(=O)=O)cc3)CC2)ncc1C(N)=O', 1.0),
  ('Cc1cc(C#N)cc(C)c1Oc1nc(Nc2ccc(C#N)cc2)ncc1C(N)=O', 0.0),
  ('Cc1cc(C#N)cc(C)c1Oc1nc(NC2CCN(c3ccc(NS(=O)(=O)C4CC4)cc3)CC2)ncc1C(N)=O', 1.0),
  ('Cc1cc(C#N)cc(C)c1Oc1nc(NC2CCN(c3ccc(NS(=O)(=O)N(C)C)cc3)CC2)ncc1C(N)=O', 1.0),
  ('Cc1cc(C#N)cc(C)c1Oc1nc(Nc2ccc(C#N)c(F)c2)ncc1C(N)=O', 0.0),
  ('Cc1cc(C#N)cc(C)c1Oc1nc(NC2CCN(c3ccc(NS(C)(=O)=O)cc3)CC2)ncc1C(N)=O', 1.0),
  ('Cc1cc(C#N)cc(C)c1Oc1nc(NC2CCN(Cc3ccc(S(C)(=O)=O)cc3)CC2)ncc1C(N)=O', 1.0),
  ('Cc1cc(C#N)cc(C)c1Oc1nc(NC2CCN(Cc3ccc(C(N)=O)cc3)CC2)ncc1C(N)=O', 0.0),
  ('Cc1cc(C#N)cc(C)c1Oc1nc(NC2CCN(Cc3ccc(B(O)O)cc3)CC2)ncc1C(N)=O', 0.0),
  ('Cc1cc(C#N)cc(C)c1Oc1nc(NC2CCN(Cc3ccc(S(N)(=O)=O)cc3)CC2)ncc1C(N)=O', 1.0);

###

Recorded EC50 values for a group of compounds are listed next.
Test system: Human immunodeficiency virus 1
Assay: Antiviral activity against NNRTI-resistant HIV-1 harboring Y181C mutant infected in human MT4 cells assessed as virus-induced cytopathicity incubated for 5 days by MTT assay
Format: functional, organism-based
Settings: Human immunodeficiency virus 1, MT4, 120 h
Value type: EC50 (µM)

INSERT INTO measurements (smiles_input, measured_on, readout_number) VALUES
  ('Cc1cc(C#N)cc(C)c1Oc1nc(Nc2ccc(C#N)cc2)ncc1C(N)=O', 'Human immunodeficiency virus 1', 0.395),
  ('Cc1cc(C#N)cc(C)c1Oc1nc(Nc2ccc(C#N)c(F)c2)ncc1C(N)=O', 'Human immunodeficiency virus 1', 0.18),
  ('Cc1cc(C#N)cc(C)c1Oc1nc(NC2CCN(c3ccc(N)cc3)CC2)ncc1C(N)=O', 'Human immunodeficiency virus 1', 0.252),
  ('Cc1cc(C#N)cc(C)c1Oc1nc(NC2CCN(Cc3ccc(B(O)O)cc3)CC2)ncc1C(N)=O', 'Human immunodeficiency virus 1', 0.159),
  ('Cc1cc(C#N)cc(C)c1Oc1nc(NC2CCN(c3ccc(NS(=O)(=O)C4CC4)cc3)CC2)ncc1C(N)=O', 'Human immunodeficiency virus 1', 0.045);

###

Assay: Fold resistance, ratio of EC50 for antiviral activity against NNRTI-resistant HIV-1 harboring F227L/V106A double mutant infected in human MT4 cells assessed as virus-induced cytopathicity to EC50 for antiviral activity against HIV-1 RES056 infected in human MT4 cells assessed as reduction in virus induced cytopathic effect
Type: functional
Value type: Ratio EC50

INSERT INTO measurements (smiles_input, value_type, readout_number) VALUES
  ('Cc1cc(C#N)cc(C)c1Oc1nc(NC2CCN(c3ccc(NS(=O)(=O)N(C)C)cc3)CC2)ncc1C(N)=O', 'Ratio EC50', 2359.1),
  ('Cc1cc(C#N)cc(C)c1Oc1nc(Nc2ccc(C#N)cc2)ncc1C(N)=O', 'Ratio EC50', 785.5),
  ('Cc1cc(C#N)cc(C)c1Oc1nc(NC2CCN(Cc3ccc(B(O)O)cc3)CC2)ncc1C(N)=O', 'Ratio EC50', 159.1),
  ('Cc1cc(C#N)cc(C)c1Oc1nc(NC2CCN(c3ccc(N)cc3)CC2)ncc1C(N)=O', 'Ratio EC50', 96.4),
  ('Cc1cc(C#N)cc(C)c1Oc1nc(NC2CCN(Cc3ccc(S(C)(=O)=O)cc3)CC2)ncc1C(N)=O', 'Ratio EC50', 605.5),
  ('Cc1cc(C#N)cc(C)c1Oc1nc(NC2CCN(c3ccc(NS(=O)(=O)C4CC4)cc3)CC2)ncc1C(N)=O', 'Ratio EC50', 5.5),
  ('Cc1cc(C#N)cc(C)c1Oc1nc(NC2CCN(Cc3ccc(C(N)=O)cc3)CC2)ncc1C(N)=O', 'Ratio EC50', 394.1),
  ('Cc1cc(C#N)cc(C)c1Oc1nc(Nc2ccc(C#N)c(F)c2)ncc1C(N)=O', 'Ratio EC50', 663.7),
  ('Cc1cc(C#N)cc(C)c1Oc1nc(NC2CCN(Cc3ccc(S(N)(=O)=O)cc3)CC2)ncc1C(N)=O', 'Ratio EC50', 132.9),
  ('Cc1cc(C#N)cc(C)c1Oc1nc(NC2CCN(c3ccc(NS(N)(=O)=O)cc3)CC2)ncc1C(N)=O', 'Ratio EC50', 4648.8),
  ('Cc1cc(C#N)cc(C)c1Oc1nc(NC2CCN(c3ccc(NS(C)(=O)=O)cc3)CC2)ncc1C(N)=O', 'Ratio EC50', 1716.7);

###

Assay: Selectivity index, ratio of CC50 for cytotoxicity against human MT4 cells assessed as reduction in cell viability to EC50 for antiviral activity against NNRTI-resistant HIV-1 harboring K103N mutant infected in human MT4 cells
Assay type: toxicity, cell-based
Settings: read-out: Ratio CC50/EC50
Recorded selectivity ratio values for a group of compounds are listed next.
Value type: selectivity ratio

INSERT INTO measurements (smiles_input, result) VALUES
  ('Cc1cc(C#N)cc(C)c1Oc1nc(NC2CCN(Cc3ccc(B(O)O)cc3)CC2)ncc1C(N)=O', '> 5550'),
  ('Cc1cc(C#N)cc(C)c1Oc1nc(NC2CCN(Cc3ccc(S(C)(=O)=O)cc3)CC2)ncc1C(N)=O', '> 4460'),
  ('Cc1cc(C#N)cc(C)c1Oc1nc(Nc2ccc(C#N)c(F)c2)ncc1C(N)=O', 1770),
  ('Cc1cc(C#N)cc(C)c1Oc1nc(NC2CCN(Cc3ccc(S(N)(=O)=O)cc3)CC2)ncc1C(N)=O', 3180),
  ('Cc1cc(C#N)cc(C)c1Oc1nc(NC2CCN(c3ccc(NS(=O)(=O)C4CC4)cc3)CC2)ncc1C(N)=O', 23400);
